- Tested on: SARS-CoV-2 replicon
- assay_method_text: microbe, parasite or virus in culture
- Type: cell-based
- condition_details: Severe acute respiratory syndrome coronavirus 2, Huh-7
For each entry below, report its EC50 value.

Illustrative cases are given below, each with its answer.
[[record]]
molecule = "Cc1nn(C)cc1-c1cc(F)cc(C2(NC(=O)c3ccccc3CNC(=O)C(=O)NCC#Cc3ncccc3Cl)CC2)c1 [Example 259]"
tgt = "SARS-CoV-2 replicon"
endpoint_result = "< 1 µM"

[[record]]
molecule = "N#CCNC(=O)C(=O)NCc1ccccc1C(=O)NC1(c2ccc(F)c(-c3cnn(C4CC4)c3)c2)CC1 [Example 221]"
tgt = "SARS-CoV-2 replicon"
endpoint_result = "1 to 10 µM"

[[record]]
molecule = "CC[C@@H](C#Cc1nccs1)NC(=O)C(=O)NCc1ccccc1C(=O)NC1(c2ccc3nn(C)cc3c2)CC1 [Example 146]"
tgt = "SARS-CoV-2 replicon"
endpoint_result = "< 1 µM"

[[record]]
molecule = "N#CCNC(=O)C(=O)NCc1ccccc1C(=O)NC1(c2cc(F)c(F)c(-c3cccs3)c2)CC1 [Example 239]"
tgt = "SARS-CoV-2 replicon"
endpoint_result = "> 10 µM"

[[record]]
molecule = "C#CCNC(=O)C(=O)NCc1ccccc1C(=O)NC1(c2cc(Cl)cc(-c3cnc(C4CC4)nc3)c2)CC1 [Example 73]"
tgt = "SARS-CoV-2 replicon"
endpoint_result = "< 1 µM"


For every listed record, write down its EC50.
1. C#CCNC(=O)C(=O)NCc1ccccc1C(=O)NC1(c2cc(OC)c3nn(C4CC4)cc3c2)CC1 [Example 343]
2. O=C(NCC#CC(=O)N1CCCO1)C(=O)NCc1ccccc1C(=O)NC1(c2cccc3ccccc23)CC1 [Example 526]
3. N#CCNC(=O)C(=O)NCc1ccccc1C(=O)NC1(c2cc(C(=O)NC3CC3)cc3ccccc23)CC1 [Example 117]
4. C#CCNC(=O)C(=O)NCc1ccccc1C(=O)NC1(c2cc(Cl)cc(-c3cn(C)nc3C)c2)CC1 [Example 485]
5. N#CCNC(=O)C(=O)NCc1ccccc1C(=O)NC1(c2cccc3ccccc23)CC1 [Example 25]

Ans:
1. < 1 µM
2. < 1 µM
3. 1 to 10 µM
4. < 1 µM
5. < 1 µM

* * *

For each entry below, report its pEC50 value.
- Tested on: SARS-CoV-2 replicon
- assay_method_text: microbe, parasite or virus in culture
- Format: cell-based
- condition_details: Severe acute respiratory syndrome coronavirus 2, Huh-7
pEC50: −log10 of the molar value.

[[record]]
compound = "C#CCNC(=O)C(=O)NCc1ccccc1C(=O)NC1(c2ccc(F)c(-c3cnn(C4CC4)c3)c2)CC1"
metric_name = "pEC50"
endpoint_result = "> 6.00"

[[record]]
compound = "C#CCNC(=O)C(=O)NCc1ccccc1C(=O)NC1(c2cc(Cl)cc(-c3cc4ccccc4s3)c2)CC1"
metric_name = "pEC50"
endpoint_result = "5.00 to 6.00"

[[record]]
compound = "O=C(/C=C/CNC(=O)C(=O)NCc1ccccc1C(=O)NC1(c2cccc3ccccc23)CC1)NCC(F)(F)F"
metric_name = "pEC50"
endpoint_result = "< 5.00"

[[record]]
compound = "O=C(NCC#Cc1nccs1)C(=O)NCc1ccccc1C(=O)NC1(c2cc3ccccc3cn2)CC1"
metric_name = "pEC50"
endpoint_result = "> 6.00"

[[record]]
compound = "N#CCNC(=O)C(=O)NCc1ccccc1C(=O)NC1(c2cc(Cl)cc(-c3cnn(C(F)F)c3)c2)CC1"
metric_name = "pEC50"
endpoint_result = "5.00 to 6.00"


For every listed record, write down its pEC50.
1. CN1CC(COc2ccc(CNC(=O)C(=O)NCC#N)c(C(=O)NC3(c4cccc5ccccc45)CC3)c2)C1
2. Cc1nn(C)cc1-c1cc(C2(NC(=O)c3ccccc3CNC(=O)C(=O)NCC#N)CC2)ccc1F
3. N#CN1CC[C@@H](CNC(=O)C(=O)NCc2ccccc2C(=O)NC2(c3cccc4ccccc34)CC2)C1
4. N#CCNC(=O)C(=O)NCc1ccccc1C(=O)NC1(c2cc(Cl)cc(-c3cccs3)c2)CC1
5. COc1cc(C2(NC(=O)c3ccccc3CNC(=O)C(=O)N[C@@H](C)C#Cc3ncccc3Cl)CC2)cc2cn(C3CC3)nc12
6. O=C(NCC#CC(=O)N1CC2CC2C1)C(=O)NCc1ccccc1C(=O)NC1(c2ccc3ccccc3c2)CC1 (centres unmarked)
7. Cc1nn(C2CC2)c(C)c1-c1cc(Cl)cc(C2(NC(=O)c3ccccc3CNC(=O)C(=O)NCC#N)CC2)c1

Ans:
["5.00 to 6.00", "< 5.00", "> 6.00", "5.00 to 6.00", "> 6.00", "> 6.00", "5.00 to 6.00"]
